Hello, the source for this data is patent US20170196802A1, in case you need it.

- protocol.details: Pharmacokinetic study, intramuscular injection, four arm parallel
- Assay type: in vivo, male Sprague-Dawley Rats
- condition.summary: male, Sprague-Dawley, im, rat, 1.5 mg/kg, calculated based on terminal phase plasma concentrations above 2% of Cmax
assay.endpoint: half-life (h)
Reply numerically in h, unit not repeated.

Query: Look up half-life for this molecule: O=C1[C@@H]2[C@H]3CC[C@H](C3)[C@@H]2C(=O)N1C[C@@H]1CCCC[C@H]1CN1CCN(c2nsc3ccccc23)CC1
Response: 10

* * *

- protocol.details: Pharmacokinetic study, intramuscular injection, four arm parallel
- Type: in vivo, male Sprague-Dawley Rats
- condition.summary: male, Sprague-Dawley, plasma, im, rat, 45 mg/kg
assay.endpoint: half-life

Query: Request the reported half-life associated with O=C1[C@@H]2[C@H]3CC[C@H](C3)[C@@H]2C(=O)N1C[C@@H]1CCCC[C@H]1CN1CCN(c2nsc3ccccc23)CC1 [lurasidone]
Response: ≤ 21 days
